Where these numbers come from: ChEMBL document CHEMBL3108778

# Test name: Cmax in C57BL/6 mouse at 25 mg/kg, ip
# Format: ADME, organism-based
# Parameters: dose 25 mg/kg, route intraperitoneal
# Stated conditions: in vivo
Measurement name: Cmax
Reply with the number, then its unit.

For `Nc1nc(F)nc2c1ncn2[C@@H]1O[C@H](CO)C[C@H]1O` the compound record lists Cmax as 9.17 µM

* * *

# Test name: Apparent initial half life in C57BL/6 mouse at 25 mg/kg, ip
# Assay type: ADME, organism-based
# Set-up: dose 25 mg/kg, route intraperitoneal
# Stated conditions: in vivo, read-out: alphat1/2(app) (converted)
Measurement name: half-life (min)
Entry rule: numbers only, all in min.

For `Nc1nc(F)nc2c1ncn2[C@@H]1O[C@H](CO)C[C@H]1O` the molecule record lists half-life as 36

* * *

# Test name: Apparent terminal half life in C57BL/6 mouse at 25 mg/kg, ip
# Format: ADME, organism-based
# Parameters: dose 25 mg/kg, route intraperitoneal
# Stated conditions: in vivo, read-out: betat1/2(app) (converted)
Measurement name: half-life (min)
Entry rule: numbers only, all in min.

For `Nc1nc(F)nc2c1ncn2[C@@H]1O[C@H](CO)C[C@H]1O` the molecule record lists half-life as 366

* * *

# Test name: Metabolic stability in human plasma at 10 uM measured over 4 hrs by LC-MS/MS analysis
# Format: ADME, cell-free
# Stated conditions: read-out: Stability
Measurement name: remaining at 4 h, 10 µM (%)
Entry rule: numbers only, all in %.

For `Nc1nc(F)nc2c1ncn2[C@@H]1O[C@H](CO)C[C@H]1O` the compound record lists remaining at 4 h, 10 µM as 98

* * *

# Test system: Trypanosoma brucei
# Test name: Trypanocidal activity against bloodstream stage of Trypanosoma brucei after 72 hrs by WST-1 assay in presence of deoxycoformycin
# Format: functional, organism-based
Measurement name: pIC50
As a rule, pIC50 stands for the negative log10 of the concentration, concentration in M.

1) Nc1ncnc2c1ncn2[C@@H]1O[C@H](CO)C[C@H]1O [CORDYCEPIN]	8.92

Pending molecule:
For `Nc1nc(F)nc2c1ncn2[C@@H]1O[C@H](CO)C[C@H]1O` the molecule record lists pIC50 as 6.77

* * *

# Test name: Apparent initial half life in C57BL/6 mouse at 25 mg/kg, po
# Assay type: ADME, organism-based
# Set-up: dose 25 mg/kg, route oral
# Stated conditions: in vivo, read-out: alphat1/2(app) (converted)
Measurement name: half-life
Reply with the number, then its unit.

For `Nc1nc(F)nc2c1ncn2[C@@H]1O[C@H](CO)C[C@H]1O` the compound record lists half-life as 54 min

* * *

# Test name: Apparent permeability across apical to basolateral side in human Caco2 cells at 10 uM by LC-MS/MS analysis
# Format: ADME, cell-based
# Stated conditions: Caco-2
Measurement name: Papp A→B at 10 µM (×10⁻⁶ cm/s)
Entry rule: numbers only, all in ×10⁻⁶ cm/s.

For `Nc1nc(F)nc2c1ncn2[C@@H]1O[C@H](CO)C[C@H]1O` the compound record lists Papp A→B at 10 µM as 3

* * *

# Test name: Apparent terminal half life in C57BL/6 mouse at 25 mg/kg, po
# Assay type: ADME, organism-based
# Design: dose 25 mg/kg, route oral
# Stated conditions: in vivo, read-out: betat1/2(app) (converted)
Measurement name: half-life

For `Nc1nc(F)nc2c1ncn2[C@@H]1O[C@H](CO)C[C@H]1O` the compound record lists half-life as 6.8 h
